We begin with a simple list: items and their reported self-splicing fitness (ln).
Method Notes: self-splicing fitness, log relative to wild type (ln ratio); higher = more splicing; Tetrahymena group I intron in knt gene, E. coli kanamycin selection, DiMSum; sequences stand for … in CUCUCU…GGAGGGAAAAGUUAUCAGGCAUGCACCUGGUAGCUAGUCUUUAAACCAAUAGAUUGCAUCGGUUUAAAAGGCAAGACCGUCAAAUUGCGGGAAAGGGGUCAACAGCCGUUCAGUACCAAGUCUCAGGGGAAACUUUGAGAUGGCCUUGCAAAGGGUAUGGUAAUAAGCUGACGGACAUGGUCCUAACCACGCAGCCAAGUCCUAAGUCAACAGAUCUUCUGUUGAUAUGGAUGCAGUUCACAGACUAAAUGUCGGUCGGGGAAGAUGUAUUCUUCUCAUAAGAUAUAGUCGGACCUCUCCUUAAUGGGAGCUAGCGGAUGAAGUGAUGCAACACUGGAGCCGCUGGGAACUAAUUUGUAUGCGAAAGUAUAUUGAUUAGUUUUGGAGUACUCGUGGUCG;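 note: selection with 25 µg/mL kanamycin versus none on LB agar overnight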
Recorded Conditions: 37 °C
Response field accepts a number only; no unit should be typed.

QUERY: Which self-splicing fitness (ln) reading was recorded for the sequence UCAUAGCAAUAUUACGGUGA ?
RESULT: -2

QUERY: Another sequence to look at: UAAAAGCAAUAUUACGGGCU
RESULT: -2

QUERY: Another sequence to look at: AGGCAGCAAUAUUACGUCUC
RESULT: -2.03
